Origin of measurements: patent US20230373930A1

Target System: human FPR2 (Homo sapiens, UniProt P25090)
Sequence (P25090 1-351): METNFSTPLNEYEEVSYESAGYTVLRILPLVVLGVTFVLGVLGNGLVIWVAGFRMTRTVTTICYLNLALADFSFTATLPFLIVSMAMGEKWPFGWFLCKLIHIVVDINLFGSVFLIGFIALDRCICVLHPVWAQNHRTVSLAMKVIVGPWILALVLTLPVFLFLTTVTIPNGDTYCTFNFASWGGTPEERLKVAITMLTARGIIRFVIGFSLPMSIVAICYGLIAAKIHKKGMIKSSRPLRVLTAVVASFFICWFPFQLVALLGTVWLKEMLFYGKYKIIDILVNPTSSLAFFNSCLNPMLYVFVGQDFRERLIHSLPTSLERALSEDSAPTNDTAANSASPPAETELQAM
Protocol Summary: FPR2 cyclic adenosine monophosphate (cAMP) assay
Condition Details: CHO cells overexpressing human FPR2; forskolin 5 μM; inhibition of cAMP production; HTRF; read-out: hFPR2 cAMP2 EC50
Can you tell me EC50 for the items I'm about to list?

Example cases with answers are listed next.
COc1cc(F)c(-n2cc(-c3ccc(Cl)c(C)c3)nc2NC(=O)c2ccc(OC(F)F)cc2)c(F)c1: 47 nM
COc1cc(F)c(-n2cc(C(=O)N3CC[C@H](O)C3)nc2NC(=O)c2ccc(OC(F)F)cc2)c(F)c1: 120 nM
COc1cc(F)c(-n2cc(-c3ccc(C(F)(F)F)cc3)nc2NC(=O)c2ccc(OC(F)F)cc2)c(F)c1: 76 nM
COc1cc(F)c(-n2cc(-c3ccc(OC(F)F)cc3)nc2NC(=O)c2ccc(OC(F)F)cc2)c(F)c1: 33 nM
COc1ccc(-n2cc(-c3ccc4c(c3)CCO4)nc2NC(=O)c2ccc(OC(F)F)cc2)cc1: 28 nM

Below are 2 molecules. Give each one its EC50.
1. COc1cc(F)c(-n2cc(-c3nccs3)nc2NC(=O)c2ccc(OC(F)F)cc2)c(F)c1
2. COc1cc(F)c(-n2cc(Cc3ccccc3)nc2NC(=O)c2ccc(OC(F)F)cc2)c(F)c1

Result block:
["11 nM", "46 nM"]

----------
Target System: human FPR2 (Homo sapiens)
Protocol Summary: FPR2 cyclic adenosine monophosphate (cAMP) assay
Condition Details: CHO cells overexpressing human FPR2; forskolin 5 μM; inhibition of cAMP production; HTRF; read-out: hFPR2 cAMP2 EC50
Readout Type: EC50
State the value with its unit after it.

COc1cc(F)c(-n2cc(-c3cccc(C#N)c3)nc2NC(=O)c2ccc(OC(F)F)cc2)c(F)c1: 5 nM

Below are 6 compounds. Give each one its EC50.
1. CCOC(=O)c1cn(-c2ccc(OC)cc2)c(NC(=O)c2ccc(OC(F)F)cc2)n1
2. COc1cc(F)c(-n2cc(Cc3nnc(C)o3)nc2NC(=O)c2ccc(OC(F)F)cc2)c(F)c1
3. CCc1cn(-c2c(F)cc(OC)cc2F)c(NC(=O)c2ccc(OC(F)F)cc2)n1
4. COc1ccc(-n2cc(C34CC5CC(CC(C5)C3)C4)nc2NC(=O)c2ccc(OC(F)F)cc2)cc1
5. COc1cc(F)c(-n2cc(-c3ccn[nH]3)nc2NC(=O)c2ccc(OC(F)F)cc2)c(F)c1
6. COc1cc(F)c(-n2cc(-c3cccc(Cl)c3)nc2NC(=O)c2ccc(OC(F)F)cc2)c(F)c1

Result block:
1: 9 nM; 2: 23 nM; 3: 21 nM; 4: 320 nM; 5: 59 nM; 6: 15 nM

Lookup result for "COc1cc(F)c(-n2cc(C3CCNCC3)nc2NC(=O)c2ccc(OC(F)F)cc2)c(F)c1" ; measured EC50: 10 nM
